Reference source: ChEMBL document CHEMBL1201862

# Test system: SK-OV-3
# protocolSummary: NCI tumour cell line growth inhibition, 48 h
Active and inactive are the calls of the source. No stated cut-off is given here; in the data, active = GI50 up to about 1.1 µM and inactive = higher.
Pick one and only one: 1.0 = active, 0.0 = inactive

Use these answered entries as a reference point.
{"molecule": "CCC(C)C1=C(O)[N+]2([O-])Oc3ccc(-c4c(O)c(O)c(-c5ccc(O)cc5)c(OC(C)=O)c4OC(C)=O)cc3OC2(C(C)CC)C(=O)N1O (stereo not given)", "qualitativeLabel": 0.0}
{"molecule": "COC(=O)c1ccccc1C#CCCCOS(C)(=O)=O", "qualitativeLabel": 0.0}
{"molecule": "CCOC(=O)C(NC(=O)c1nc[nH]c1[N+](=O)[O-])C(C)C (stereo not given)", "qualitativeLabel": 0.0}

query: Which result was noted for this molecule in the test: COc1cc2c(/C=C3/C(=O)N(C)c4ccccc43)c(Cl)[nH]c2cc1C
result: 1.0

query: Give the logged outcome of this assay for the following molecule: Cc1cc(-c2ccccc2)nc(Nc2nc3ccccc3o2)n1
result: 0.0
